target: ERβ (Rattus norvegicus, UniProt Q62986); construct: Full length rat ERα expression vector (pcDNA-ERα; RH Price UCSF) and ERβ expression vector (pcDNA-ERβ; T A Brown, Pfizer; made in house; host or cells: TnT-coupled rabbit reticulocyte lysate in vitro translation (Promega); experiment: Competition binding of equol enantiomers with [3H]E2 for in vitro translated ERβ; details: as stated in the background section
Sequence (Q62986 whole entry): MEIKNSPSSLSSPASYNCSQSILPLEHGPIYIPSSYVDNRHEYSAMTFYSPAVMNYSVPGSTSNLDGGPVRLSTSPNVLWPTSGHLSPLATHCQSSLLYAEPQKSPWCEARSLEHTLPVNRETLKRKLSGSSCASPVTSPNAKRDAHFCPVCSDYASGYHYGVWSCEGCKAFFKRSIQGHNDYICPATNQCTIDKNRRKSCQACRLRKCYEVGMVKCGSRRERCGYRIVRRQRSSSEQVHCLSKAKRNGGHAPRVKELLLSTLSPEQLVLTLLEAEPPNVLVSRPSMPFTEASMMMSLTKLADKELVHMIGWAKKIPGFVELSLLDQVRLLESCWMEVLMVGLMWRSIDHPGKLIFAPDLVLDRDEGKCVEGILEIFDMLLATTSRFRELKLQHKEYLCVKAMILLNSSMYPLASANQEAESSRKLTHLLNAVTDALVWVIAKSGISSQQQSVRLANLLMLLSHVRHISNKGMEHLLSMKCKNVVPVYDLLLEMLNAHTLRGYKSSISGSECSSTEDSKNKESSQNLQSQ
parameter: Kd (nM)
Provide only the numeric value, understood in nM.

-- ask Kd for `Oc1ccc([C@H]2COc3cc(O)ccc3C2)cc1` ?
-- reply 0.7
